molecular target: Lck (h) (Homo sapiens, UniProt P06239); experiment: Kinase inhibition assay (33P-ATP, P30 filter, scintillation counting): Lck; format: biochemical; conditions: 30µM Testsubstanz (100 µM ATP); read-out: Hemmung von Kinasen in % Lck (h)
Sequence (P06239 whole entry): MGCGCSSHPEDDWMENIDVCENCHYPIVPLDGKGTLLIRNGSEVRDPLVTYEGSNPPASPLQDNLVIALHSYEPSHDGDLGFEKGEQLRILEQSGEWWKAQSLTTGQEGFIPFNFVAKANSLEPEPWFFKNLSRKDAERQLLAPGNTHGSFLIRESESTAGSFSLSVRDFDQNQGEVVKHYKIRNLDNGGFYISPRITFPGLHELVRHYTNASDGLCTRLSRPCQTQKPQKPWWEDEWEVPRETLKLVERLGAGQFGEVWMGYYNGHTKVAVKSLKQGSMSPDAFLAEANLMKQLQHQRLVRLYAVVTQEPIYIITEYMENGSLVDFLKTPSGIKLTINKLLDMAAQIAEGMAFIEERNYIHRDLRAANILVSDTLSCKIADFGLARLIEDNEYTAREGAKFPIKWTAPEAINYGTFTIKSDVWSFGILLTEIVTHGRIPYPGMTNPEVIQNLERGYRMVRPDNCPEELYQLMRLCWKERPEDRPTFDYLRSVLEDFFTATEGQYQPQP
Please mark satisfied if the recorded inhibition at 30 µM is equal to or greater than 20%, and not satisfied if it falls below.

{"compound": "Cn1c(-c2ccccc2)nc2c(-c3ccc(F)cc3)ncnc21", "className": "not satisfied"}
{"compound": "Cn1cnc2c(Nc3ccc(F)cc3)ncnc21", "className": "not satisfied"}
{"compound": "Fc1ccc(CSc2ncnc3[nH]cnc23)cc1", "className": "not satisfied"}
{"compound": "Fc1ccc(Sc2ncnc3c2ncn3Cc2ccccc2)cc1", "className": "not satisfied"}
{"compound": "Cn1cnc2c(Nc3ccccc3)ncnc21", "className": "not satisfied"}
{"compound": "Fc1ccc(Sc2ncnc3[nH]cnc23)cc1", "className": "not satisfied"}
{"compound": "Cn1c(-c2ccc([S+](C)[O-])cc2)nc2c(Sc3ccccc3)ncnc21 (centres unmarked)", "className": "satisfied"}
{"compound": "Cn1cnc2c(Sc3ccc(F)cc3)ncnc21", "className": "not satisfied"}
{"compound": "Cn1c(-c2ccc(S(C)(=O)=O)cc2)nc2c(Sc3ccccc3)ncnc21", "className": "not satisfied"}
{"compound": "c1ccc(Nc2ncnc3[nH]cnc23)cc1", "className": "satisfied"}
{"compound": "COc1ncnc2ncn(Cc3ccc(F)cc3)c12", "className": "not satisfied"}

----------
target: PKB (h) (Homo sapiens, UniProt P31749); experiment: Kinase inhibition assay (33P-ATP, P30 filter, scintillation counting): PKB; assay type: biochemical; conditions: 40 min; 30µM Testsubstanz (100 µM ATP); read-out: Hemmung von Kinasen in % PKB (h)
Sequence (P31749 whole entry): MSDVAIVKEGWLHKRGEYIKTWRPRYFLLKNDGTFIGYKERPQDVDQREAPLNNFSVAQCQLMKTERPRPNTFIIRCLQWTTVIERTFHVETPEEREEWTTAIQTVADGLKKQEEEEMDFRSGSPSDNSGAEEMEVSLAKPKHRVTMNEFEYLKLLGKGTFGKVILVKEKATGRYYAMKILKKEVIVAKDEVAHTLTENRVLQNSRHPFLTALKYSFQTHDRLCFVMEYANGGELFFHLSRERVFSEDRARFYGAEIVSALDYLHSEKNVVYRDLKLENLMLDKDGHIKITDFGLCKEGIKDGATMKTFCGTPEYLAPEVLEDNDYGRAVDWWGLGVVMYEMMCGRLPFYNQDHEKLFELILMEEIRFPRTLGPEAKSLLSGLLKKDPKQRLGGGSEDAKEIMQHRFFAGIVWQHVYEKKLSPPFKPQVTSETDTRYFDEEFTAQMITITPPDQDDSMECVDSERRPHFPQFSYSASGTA
Please mark satisfied if the recorded inhibition at 30 µM is equal to or greater than 4%, and not satisfied if it falls below.

{"compound": "Cn1c(C#CCCO)nc2c(Sc3ccccc3)ncnc21", "className": "satisfied"}
{"compound": "C(=Cc1ncnc2[nH]cnc12)c1ccccc1", "className": "satisfied"}
{"compound": "Cn1c(-c2ccccc2)nc2c(-c3ccc(F)cc3)ncnc21", "className": "satisfied"}
{"compound": "Cn1cnc2c(Nc3ccccc3)ncnc21", "className": "not satisfied"}
{"compound": "Fc1ccc(Cn2cnc3c(Sc4ccccc4)ncnc32)cc1", "className": "satisfied"}
{"compound": "Cn1cnc2c(Nc3ccc(F)cc3)ncnc21", "className": "not satisfied"}
{"compound": "Cn1c(-c2ccc([S+](C)[O-])cc2)nc2c(Sc3ccc(F)cc3)ncnc21 (stereo not shown)", "className": "satisfied"}
{"compound": "Cn1cnc2c(Sc3ccc(F)cc3)ncnc21", "className": "not satisfied"}
{"compound": "Fc1ccc(Sc2ncnc3[nH]cnc23)cc1", "className": "not satisfied"}
{"compound": "Cn1c(-c2ccc(S(C)(=O)=O)cc2)nc2c(Sc3ccccc3)ncnc21", "className": "satisfied"}
{"compound": "c1ccc(Nc2ncnc3[nH]cnc23)cc1", "className": "satisfied"}

----------
biological target: c-RAF (h) (Homo sapiens); experiment: Kinase inhibition assay (33P-ATP, P30 filter, scintillation counting): c-RAF; assay type: biochemical; details: 40 min; 30µM Testsubstanz (100 µM ATP); read-out: Hemmung von Kinasen in % c-RAF (h)
Sequence (P04049 whole entry): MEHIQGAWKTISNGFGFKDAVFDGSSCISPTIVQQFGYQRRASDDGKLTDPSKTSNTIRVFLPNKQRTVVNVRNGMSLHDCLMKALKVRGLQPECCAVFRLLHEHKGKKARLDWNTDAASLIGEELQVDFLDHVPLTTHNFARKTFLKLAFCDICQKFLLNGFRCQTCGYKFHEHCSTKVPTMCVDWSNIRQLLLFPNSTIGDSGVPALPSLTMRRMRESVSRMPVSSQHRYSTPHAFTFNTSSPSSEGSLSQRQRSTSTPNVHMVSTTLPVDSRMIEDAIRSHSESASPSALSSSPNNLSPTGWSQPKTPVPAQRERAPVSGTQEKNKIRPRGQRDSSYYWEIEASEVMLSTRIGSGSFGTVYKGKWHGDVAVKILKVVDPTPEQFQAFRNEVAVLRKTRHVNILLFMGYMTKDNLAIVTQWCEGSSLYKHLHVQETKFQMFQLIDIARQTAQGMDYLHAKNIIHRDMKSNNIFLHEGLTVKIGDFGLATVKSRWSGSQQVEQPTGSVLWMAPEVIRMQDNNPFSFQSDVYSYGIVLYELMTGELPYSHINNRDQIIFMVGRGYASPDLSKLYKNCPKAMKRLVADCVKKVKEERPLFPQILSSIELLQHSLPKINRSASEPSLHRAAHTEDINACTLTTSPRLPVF

{"compound": "Cn1c(-c2ccc(S(C)(=O)=O)cc2)nc2c(Sc3ccccc3)ncnc21 [Verbd. 62]", "inhibition at 30 µM / %": 10}
{"compound": "c1ccc(Cn2cnc3c(Sc4ccccc4)ncnc32)cc1 [Verbd. 74, 9-Benzyl-6-phenylsulfanyl-9H-purin]", "inhibition at 30 µM / %": 0}
{"compound": "Fc1ccc(CSc2ncnc3[nH]cnc23)cc1 [Verbd. 10, 6-(4-Fluoro-benzylsulfanyl)-9H-purin]", "inhibition at 30 µM / %": 47}
{"compound": "Cn1c(-c2ccccc2)nc2c(-c3ccc(F)cc3)ncnc21 [Verbd. 41]", "inhibition at 30 µM / %": 24}
{"compound": "Cn1c(-c2ccc([S+](C)[O-])cc2)nc2c(Sc3ccccc3)ncnc21 (stereo not shown) [Verbd. 59]", "inhibition at 30 µM / %": 0}
{"compound": "c1ccc(Sc2ncnc3[nH]ccc23)cc1 [Verbd. 52]", "inhibition at 30 µM / %": 22}
{"compound": "Nc1ncnc2ncn(Cc3ccc(F)cc3)c12 [Verbd. 43, 7-(4-Fluoro-benzyl)-7H-purin-6-ylamin]", "inhibition at 30 µM / %": 28}
{"compound": "c1ccc(CSc2ncnc3[nH]cnc23)cc1 [Verbd. 9, 6-Benzylsulfanyl-9H-purin]", "inhibition at 30 µM / %": 53}
{"compound": "C(=Cc1ncnc2[nH]cnc12)c1ccccc1 [Verbd. 72, 6-Styryl-9H-purin]", "inhibition at 30 µM / %": 66}
{"compound": "c1ccc(Nc2ncnc3[nH]cnc23)cc1 [Verbd. 1, Phenyl-(9H-purin-6-yl)-amin]", "inhibition at 30 µM / %": 19}
{"compound": "Fc1ccc(Sc2ncnc3[nH]cnc23)cc1 [Verbd. 16, 6-(4-Fluoro-phenylsulfanyl)-9H-purin]", "inhibition at 30 µM / %": 29}
{"compound": "Nc1ncnc2c1ncn2Cc1ccc(F)cc1 [Verbd. 42a, 9-(4-Fluoro-benzyl)-9H-purin-6-ylamin]", "inhibition at 30 µM / %": 25}
{"compound": "Cn1c(-c2ccccc2)nc2c(Sc3ccc(F)cc3)ncnc21 [Verbd. 24]", "inhibition at 30 µM / %": 14}
{"compound": "Cn1c(-c2ccccc2)nc2c(Sc3ccccc3)ncnc21 [Verbd. 23]", "inhibition at 30 µM / %": 12}
{"compound": "Fc1ccc(Nc2ncnc3[nH]cnc23)cc1 [Verbd. 2, (4-Fluoro-phenyl)-(9H-purin-6-yl)-amin]", "inhibition at 30 µM / %": 24}
{"compound": "Cn1c(C#CCCO)nc2c(Sc3ccccc3)ncnc21 [Verbd. 79]", "inhibition at 30 µM / %": 0}
{"compound": "Cn1cnc2c(Sc3ccc(F)cc3)ncnc21 [Verbd. 18]", "inhibition at 30 µM / %": 12}
{"compound": "c1ccc(Sc2ncnc3[nH]cnc23)cc1 [Verbd. 15, 6-Phenylsulfanyl-9H-purin]", "inhibition at 30 µM / %": 6}
{"compound": "Fc1ccc(Sc2ncnc3[nH]ccc23)cc1 [Verbd. 53]", "inhibition at 30 µM / %": 43}
